ASSAY: Viability Counterscreen for Confirmatory qHTS for Inhibitors of ATXN expression; further: nearly all actives have a fitted effect of over 50% in size; further: potency means the concentration at half of the fitted maximal effect
DETAILS: HEK-293 ATXN2-luc cells viability, CellTiter-Fluor, 24 h
Hit rate of the full screen: of about 2,100 compounds, about 260 (12%) were called active. Not shown: some 58% with an inconclusive outcome. The list shows a part of the results.
OBSERVABLE: Potency

Example entries and their recorded answers appear below.
For the compound Nc1nc(NCCCN2CCOCC2)nc(Nc2cccc(Cl)c2)c1[N+](=O)[O-] , what Potency is on record?
inactive

Same question, CC1CCN(Cc2c(C(=O)N/N=C/c3cc(Cl)ccc3O)nnn2-c2nonc2N)CC1 this time
inactive

Moving on to the next compound: O=C(CN1C(=O)c2ccccc2S1(=O)=O)N1CCc2ccccc21
inactive

Follow-up item: COC(=O)c1ccccc1S(=O)(=O)NNC(=O)Nc1ccccc1
inactive

Please give the result for NCCCCCc1nnc(SCc2ccccc2Cl)o1 too.
inactive

Next:
Look at this compound and give its reported Potency. O=C(N/N=C\c1cc(Br)ccc1O)c1ccc(S(=O)(=O)N2CCCCC2)cc1
inactive

Further, for CS(=O)(=O)N(CC(O)CON=C1c2ccccc2-c2ccccc21)c1ccc(F)cc1 (configuration not stated) ?
inactive

Same question, CCOC(=O)C(NS(=O)(=O)c1ccc(C)cc1)(C(F)(F)F)P(=O)(OCC(C)C)OCC(C)C (configuration not stated) this time
inactive

# repeat for c1nc(CCO[C@H]2CCCCO2)cc2cc3c(cc12)OCO3
inactive

Subsequent entry: CCCCC/C=C/C1=CC(=O)C[C@H](c2ccc(OC)c(OC)c2)C1
inactive

Try this compound too: NC(N)=N/N=C/c1ccc2cccc(OCc3ccccc3)c2n1
15.8 µM (active)

Then what about the compound O=C(Nc1ccc(N2CCOCC2)c(Cl)c1)c1c(F)c(F)c(F)c(F)c1F ?
inactive

Lookup c1ccc(Cn2c(-c3ccccc3)c[n+]3c2SCCC3)cc1
inactive

Now this one: C/C(=N\Nc1cc(N2CCOCC2)nc(C)n1)c1cccc([N+](=O)[O-])c1
inactive

And what about the compound CC(NC1=CC(=O)c2cccnc2C1=O)C(O)c1ccccc1 (configuration not stated) ?
31.6 µM (active)

Now the same for CC(C)C[C@H](N)c1cn([C@@H](CCCCN)C(=O)N2CCNCC2)nn1
inactive

What would you report for CN(C)CCNC(=O)c1ccc(Cl)c2cc3ccccc3nc12 ?
10 µM (active)

Request: CCOc1cc(C=C(C(=O)OC)C(=O)OC)ccc1OCc1ccc([N+](=O)[O-])cc1
28.2 µM (active)

How about this compound: CC(=O)c1ccc(N2CCN(CC(O)COC(c3ccccc3)c3ccccc3)CC2)cc1 (configuration not stated)
inactive

Consider next the compound OC(c1ccccn1)(c1ccccn1)c1ccccn1 in the same way.
inactive

# repeat for Cn1nc(C(=O)N2CCN(c3ccc(Cl)cc3)CC2)c2c1-c1ccccc1S(=O)(=O)C2
inactive

Try the compound O=[N+]([O-])c1ccc(/C=N/N=C/c2ccc([N+](=O)[O-])o2)o1
7.94 µM (active)

###

ASSAY: Viability Counterscreen for Confirmatory qHTS for Inhibitors of ATXN expression; further: nearly all actives have a fitted effect of over 50% in size; further: potency means the concentration at half of the fitted maximal effect
DETAILS: HEK-293 ATXN2-luc cells viability, CellTiter-Fluor, 24 h
Description: PI: Daniel Scoles Ph.D. University of Utah School of Medicine, Salt Lake City, Utah MLPCN Grant: NS073009 Spinocerebellar ataxia type 2 (SCA2) is a multisystem neurodegenerative disease caused by a dominantly acting mutation leading to expansion of a polyQ domain in the ataxin-2 protein (ATXN2). SCA2 patients develop progressive ataxia and later lose function in other neuronal systems. […] Here we describe a 5-7 dose quantitative high thoroughput screen (qHTS) for compounds lowering ATXN2 expression. […]
About 260 (12%) of roughly 2,100 compounds were called active. Inconclusive results (about 58%) are left out. The list shows a part of the results.
OBSERVABLE: Potency

Look up Potency: N#C/C(=C\c1ccc([N+](=O)[O-])o1)c1nc2ccccc2[nH]1
7.94 µM (active)

Check OC[C@@H]1CN(Cc2ccc(-c3ccccc3)cc2)C[C@H](n2cnc3c(Nc4ccccc4)ncnc32)O1 too.
20 µM (active)

Can you check CC(C)[C@@H]1CC[C@@H](C)C[C@H]1OC(=O)C[n+]1cc(-c2ccc(Cl)cc2)n2c1CCCCC2 next?
22.4 µM (active)

Same again, this time with COc1ccccc1NC(=O)Nc1nc(CC(=O)N2CCN(c3ccccc3)CC2)cs1
inactive

Also Cc1c(N=C2N=C(NC(=O)c3ccc(F)cc3)c3ccccc32)c(=O)n(-c2ccccc2)n1C ?
inactive

What do you get for Cc1ccccc1C(=O)/C(C#N)=N/Nc1c(C)n(C)n(-c2ccccc2)c1=O ?
10 µM (active)

Others:
Give the measured Potency of COC(=O)c1ccc(N2CCOCC2)c(NC(=O)Nc2cccc(OC)c2)c1 .
inactive

Moving on to C/C(=N\NC(=O)c1ccc(CN2CCc3ccccc3C2)cc1)c1ccccc1O
inactive

Repeat with COc1cccc(OCC(=O)Nc2cc(Cl)ccc2Oc2ccccc2)c1
inactive

Entry CCn1c2ccccc2c2cc(/C=C(/C#N)C(N)=S)ccc21 please
inactive

Note, next up: Cc1c(C(=O)NCc2ccc(C(F)(F)F)cc2)sc(=O)n1Cc1cccc(F)c1
inactive

Please answer likewise for O=C(NC1=CC(=O)c2ccccc2C1=O)c1ccccc1
14.1 µM (active)

Could you do the same for NS(=O)(=O)c1ccc(N2N=C(c3ccccc3)CC2c2ccc(F)cc2)cc1 (stereo unspecified) , please?
inactive

###

ASSAY: Viability Counterscreen for Confirmatory qHTS for Inhibitors of ATXN expression; further: nearly all actives have a fitted effect of over 50% in size; further: potency means the concentration at half of the fitted maximal effect
DETAILS: HEK-293 ATXN2-luc cells viability, CellTiter-Fluor, 24 h
In all, about 2,100 compounds went through this assay and about 260 (12%) were called active. About 58% were inconclusive and are not listed. This is one part of the list.
OBSERVABLE: Potency

Query: Potency; subject: O=C(CSc1nnc(-c2ccc(Br)cc2)o1)Nc1cccc(C(=O)O)c1
inactive

Another compound to check: CC(C)CC(N)c1csc(Nc2ccc(C(=O)N(C)Cc3ccccc3)cn2)n1 (stereo unspecified)
14.1 µM (active)

Same again, this time with O=C(C1CC(=O)N(c2ccc3c(c2)OCCO3)C1)N1CCN(c2ccccc2)CC1 (stereo unspecified)
inactive

Could you do the same for CN1CCN(c2ccc(-c3cc(NC=O)c4ncc(-c5ccc(F)c(Cl)c5)n4c3)cc2)CC1 , please?
25.1 µM (active)

Would you kindly repeat that for CC(C)(C)N(Cc1ccc2c(c1)OCO2)C(=O)/C=C\S(=O)c1ccccc1 (stereo unspecified) ?
17.8 µM (active)

Queued: Cn1c2c(c(=O)[nH]c1=O)C(c1cccc(O)c1)C1=C(N2)c2ccccc2C1=O (stereo unspecified)
22.4 µM (active)

Same lookup for Cc1ccc(S(=O)(=O)c2c(N)n(CC3CCOC3)c3nc4ccccc4nc23)cc1 (stereo unspecified) , please.
inactive

Record: COc1cc(C#Cc2c(-c3cncn3C)n(C)c3ccc(-c4ccc(CN5CCOCC5)cc4)cc23)cc(OC)c1
inactive

Param item: CN(C)C(=O)c1cccc(-c2cnc3c(NC=O)cc(-c4ccc(F)cc4)cn23)c1
inactive

Next compound: CCC(=O)OCCNc1cc(Sc2nc3ccccc3[nH]2)c2nonc2c1[N+](=O)[O-]
3.16 µM (active)

More entries:
For C=CCOC(=O)C1=C[C@@H](c2ccc3c(c2)OCO3)C[C@@H](OCCCCO)O1 , what is its reported Potency?
inactive

Try this compound next: CCc1nc2ccc(C(=O)N(C)Cc3ccccc3)cn2c1N(C)Cc1ccc(OC)cc1
inactive

// next record CC(C)n1c(NCc2cc(Cl)ccc2O)nc2ccccc21
inactive

Further, for Cc1nc(SC2CC(=O)N(c3ccccc3)C2=O)n[nH]1 (stereo unspecified) ?
inactive

What about this compound? COc1cccc(/C=N/n2c(N)c(S(=O)(=O)c3cccs3)c3nc4ccccc4nc32)c1OC
22.4 µM (active)

And what about the compound O=C(N/N=C\c1c(O)ccc2ccccc12)c1ccc(S(=O)(=O)N2CCCCC2)cc1 ?
inactive

Another compound to look at: Cc1cccc(OCCCC(=O)Nc2nc3ccccc3[nH]2)c1
inactive

What do you have for Cn1cc(/C=C/c2cc[n+](C)cc2)c2cc(F)ccc21 ?
inactive

Check Cc1ccc(Cn2ncc3c(NN)ncnc32)cc1 too.
inactive

Next record, please: COc1ccc(-c2cc(NC=O)c3ncc(-c4cccc(C(=O)NCCN(C)C)c4)n3c2)cc1
inactive

Would you mind doing CCOc1ccc(/C=N/NC(=O)C(O)c2ccccc2)c(O)c1 (stereo unspecified) as well?
inactive

###

ASSAY: Viability Counterscreen for Confirmatory qHTS for Inhibitors of ATXN expression; further: nearly all actives have a fitted effect of over 50% in size; further: potency means the concentration at half of the fitted maximal effect
DETAILS: HEK-293 ATXN2-luc cells viability, CellTiter-Fluor, 24 h
Hit rate of the full screen: of about 2,100 compounds, about 260 (12%) were called active. Another 58% or so got no clear call; they are omitted. The list shows a part of the results.
OBSERVABLE: Potency

Example compounds with recorded Potency:
Value lookup for Potency; key = CCOC(=O)[C@H]1[C@H]2COc3ccc(OC)cc3[C@@H]2N2C(=O)c3cc(OC)c(OC)cc3NC(=O)[C@@]12C
inactive

Also check CCN(CC)CCn1nc2c3c(cccc3c1=O)-c1ccccc1-2
14.1 µM (active)

Same question, CCC(=O)OC1(C(C)=O)CCC2C3CCC4=CC(=O)CCC4(C)C3CCC21C (stereo not given) this time
inactive

Then what about the compound COc1ccc(Nc2nc(N3CCCC3)c3ccccc3n2)cc1 ?
35.5 µM (active)

Further cases:
# query: Potency of entry COc1ccc(C(=O)/C=C/c2cccc(OCc3ccccc3)c2)cc1CSCC(=O)O
inactive

Try this compound next: COc1ccc(Nc2oc(COc3ccccc3OC)nc2C#N)cc1
inactive
